Test system: NCI-H226 lung
assay.name: NCI tumour cell line growth inhibition, 48 h
The entries below are paired with their reported GI50.

The examples below pair each entry with its known result.
compound | property.label | measured.value
CCCC(CCC)C(=O)O | GI50 | > 20000 µM
COC(=O)CCc1c(/C=C2\N=C(c3ccc[nH]3)C=C2OC)[nH]c(C)c1C(=O)OCc1ccccc1 | GI50 | 0.532 µM
CCC(=O)OCN1C(=O)C=CC1=O | GI50 | 15.2 µM

Recorded GI50 for "COc1cc2c3c(n(CCCN4CCN(CCO)CC4)c(=O)c2cc1OC)-c1cc2c(cc1C3=O)OCO2" on NCI-H226 lung was 7.49 µM

###

The entries below are paired with their reported TGI.
System: HCT-15 colon
assay.name: NCI tumour cell line growth inhibition, 48 h

compound | property.label | measured.value
N#Cc1c(Nc2ccccc2)[n+]([O-])c2ccc(Cl)cc2[n+]1[O-] | TGI | 6.53 µM
O=C1Cc2c([nH]c3cc(Br)ccc23)-c2ccccc2N1 | TGI | 25.2 µM

Per the records, this compound ( "C/C(=N\NS(=O)(=O)c1ccccc1)c1ccc[n+]([O-])n1" ) has TGI equal to > 100 µM

Per the records, this compound ( "CCCCCCCCC(=O)NCCN(CCN)C(=O)CCCCCCCC" ) has TGI equal to 10.3 µM

Per the records, this compound ( "CCOC(=O)c1c[nH]c2cc3c(cc2c1=O)CCS3" ) has TGI equal to > 100 µM

Per the records, this compound ( "CC(C)Cn1cnc2c(SCc3ccccn3)nc(N)nc21" ) has TGI equal to > 100 µM

Per the records, this compound ( "C[C@]12CC[C@H]3[C@@H](CCC4=CC(=O)CC[C@@]43C)[C@@H]1CC[C@@H]2OC(=O)c1cccc2c(=O)c3ccccc3[nH]c12" ) has TGI equal to > 100 µM

Per the records, this compound ( "CCC(=O)Oc1ccc(/C=N/NC(N)=S)nc1" ) has TGI equal to > 100 µM

Per the records, this compound ( "Cc1ccc(C(=O)N/N=C(\N=Nc2ccccc2)c2ccc(N(CCC#N)CCC#N)cc2C)cc1" ) has TGI equal to > 100 µM

Per the records, this compound ( "N#CCCn1c(CCC(=O)Nc2ccc(Cl)cc2Cl)n[nH]c1=S" ) has TGI equal to > 100 µM

Per the records, this compound ( CC(C)(C)OC(=O)CC(NC(=O)OC(C)(C)C)C(=O)Oc1ccc([N+](=O)[O-])cc1 (stereo unspecified) ) has TGI equal to > 100 µM

###

Test system: SF-295 CNS
assay.name: NCI tumour cell line growth inhibition, 48 h
property.label: TGI

query.smiles | measured.on | TGI
COc1cc(N(CCC#N)CCC#N)ccc1/C(N=Nc1cccc(C)c1)=N\NC(=O)c1ccc(C)cc1 | SF-295 CNS | > 100 µM
COc1ccc(OC)c(/C=C/C(=O)c2ccc3cc(OC)ccc3c2)c1 | SF-295 CNS | 12.2 µM

Consider now this further compound.
Per the records, this compound ( "CCOC(=O)c1c[nH]c2cc3c(cc2c1=O)CCS3" ) has TGI equal to > 100 µM

###

Test system: MDA-MB-435
assay.name: NCI tumour cell line growth inhibition, 48 h
Numbered stars: 1 amine (or outer) side, 2 acyl side, 3 side chain; on linkers, the order of the positions; unused ones are H or OH. Bridge positions count the residues as written; N and C are the ends. Where a SMILES comes first, the peptide text is derived from it. Square brackets hold non-standard residues; d marks the D form. Peptide text beside a SMILES is read from it. I, II: the chains in the order shown. [ ]: non-standard residue; d: D form. The star is where a group is joined. ξ: configuration not given here. Actinocin(1to9) = Cc1c2oc3c(C)ccc(C(=O)[*:2])c3nc-2c(C(=O)[*:1])c(N)c1=O; NMeV = CN[CH](C(=O)O)C(C)C; dIva = CC[C@@](C)(N)C(=O)O; Aib = CC(C)(N)C(=O)O; ξP = O=C(O)C1CCCN1; βAla = NCCC(=O)O; Sar = CNCC(=O)O; X5 = OCN*
The entries below are paired with their reported TGI.

The examples below pair each entry with its known result.
molecule | TGI
CC(=O)Nc1cc(CN2CCCCC2)c(O)c2ncccc12 | > 100 µM
CN1C(=O)C(C)(C)Oc2c(-c3cn(C)c(=O)c4[nH]ccc34)cc(S(C)(=O)=O)cc21 | > 100 µM
CCCC(=O)Oc1cc(OC(=O)CCC)c2c(C)cc(=O)oc2c1 | > 100 µM
CCCNC(=O)c1cc(NC(=O)c2cc(NC(=O)CCS(=O)(=O)OC)cn2C)cn1C | 68.8 µM
CC[C@@](C)(NC(=O)[C@H](C)NC(=O)CCNC(=O)C(C)(C)NC(=O)[C@H](C)NC(=O)[C@@H]1CCCN1C(=O)[C@@](C)(CC)NC(=O)[C@H](Cc1ccccc1)NC(=O)C1CCCN1C(=O)C(C)(C)NC(=O)C1CCCN1C(=O)C(C)(C)NC(C)=O)C(=O)NCCC(=O)N[C@@H](CC(C)C)C(=O)NC(C)(C)C(=O)NCCC(=O)N[C@@H](CC(C)C)C(=O)NC(C)(C)C(=O)NC(C)(C)C(=O)N[C@@H](CC(C)C)C(=O)NCCC(=O)NCO (stereo not given in full) (Ac-[Aib][ξP][Aib][ξP]F[dIva]PA[Aib][βAla]A[dIva][βAla]L[Aib][βAla]L[Aib][Aib]L[βAla]-X5) | 0.357 µM

Per the records, this molecule ( CC1SC(c2cccc(Cl)c2)N(NC(=O)C(O)c2ccccc2)C1=O (stereo not given) ) has TGI equal to > 100 µM

Per the records, this molecule ( "O=C(CN1CCN(c2ccccn2)CC1)Nc1ccc(Cl)cc1C(=O)c1ccccc1Cl" ) has TGI equal to > 100 µM

Per the records, this molecule ( CC1OC(n2cnc3c(N)nc(Cl)nc32)C(C)(O)C1O (stereo not given) ) has TGI equal to > 25 µM

Per the records, this molecule ( "CC(=O)NC1=CC(=O)C=C(Cl)C1=O" ) has TGI equal to 32.2 µM

Per the records, this molecule ( CCC(C)C1NC(=O)C(NC(=O)c2c3nc4c(C(=O)NC5C(=O)NC(C(C)C)C(=O)N6CCCC6C(=O)N(C)CC(=O)N(C)C(C(C)C)C(=O)OC5C)ccc(C)c4oc-3c(C)c(=O)c2N)C(C)OC(=O)C(C(C)C)N(C)C(=O)CN(C)C(=O)C2CCCN2C1=O (stereo not given) (I: TIP[Sar][NMeV] / II: TVP[Sar][NMeV]; ester I:1-I:C, II:1-II:C; linker I:N-II:N via Actinocin(1to9); configuration not given here) ) has TGI equal to 0.0302 µM

Per the records, this molecule ( "CC(=O)N1c2ccc(-c3ccc(C(=O)O)cc3)cc2[C@H](Nc2ccc(Cl)cc2)C[C@@H]1C" ) has TGI equal to > 56 µM

Per the records, this molecule ( "NC(N)=NC(N)=NCc1ccco1" ) has TGI equal to > 1250 µM

Per the records, this molecule ( "CCOC(=O)/C=C1\C[C@H](NC(=O)OCc2ccccc2)C(=O)N1CC(=O)OCC" ) has TGI equal to > 100 µM

Per the records, this molecule ( "Cc1cccc2c(=O)c3c(O)cc4c(c3n(C)c12)C=CC(C)(C)O4" ) has TGI equal to > 100 µM

Per the records, this molecule ( "NC1=CN(Cc2ccccc2)C2=N/C(=C\c3ccco3)C(=O)N12" ) has TGI equal to > 100 µM

###

Test system: OVCAR-3 ovarian
assay.name: NCI tumour cell line growth inhibition, 48 h
property.label: GI50

molecule | measured.value
COc1ccc(OC)c(/C=C/C(=O)c2ccc3cc(OC)ccc3c2)c1 | 1.64 µM
COC(=O)[C@]1(C)CC[C@]2(C)CC[C@]3(C)C(=CC(=O)[C@@H]4[C@@]5(C)CCC(=O)NC(C)(C)[C@@H]5CC[C@]43C)[C@@H]2C1 | 15.3 µM
COc1ccc(CNC(=O)c2c(C)n([O-])c3cc(F)c(F)cc3[n+]2=O)cc1 | 10 µM

Consider now this further molecule.
Per the records, this molecule ( CCN1C(=O)N(CC)C2C1NN=c1s/c(=C\c3cnc(C)n3C)c(=O)n12 (centres undefined) ) has GI50 equal to 0.593 µM

###

Tested on: HCT-15 colon
assay.name: NCI tumour cell line growth inhibition, 48 h
property.label: TGI

The examples below pair each entry with its known result.
compound | measured.on | TGI
O=C1NC(=O)C2(CCc3ccc(N(CCCl)CCCl)cc32)N1 (centres undefined) | HCT-15 colon | 49 µM
CC(=O)N1c2ccc(-c3ccc(C(=O)O)cc3)cc2[C@H](Nc2ccc(Cl)cc2)C[C@@H]1C | HCT-15 colon | 13.5 µM
CCCNC(=O)Nc1ccc2c(c1)Cc1cc(N(CCCl)CCCl)ccc1-2 | HCT-15 colon | > 100 µM
CC(C)[C@H]1NC(=O)[C@H]2N=C(O[C@@H]2C)[C@@H]2CCCN2C(=O)[C@H](Cc2ccccc2)NC(=O)[C@@H]2COC(=N2)[C@@H](Cc2ccccc2)NC(=O)[C@@H]2COC1=N2 | HCT-15 colon | > 100 µM
CC1CC2(C)CC(=O)C1C1C(=O)N(CCN3CCOCC3)C(=O)C12 (centres undefined) | HCT-15 colon | > 100 µM

Per the records, this compound ( "C[C@H](CCCOS(C)(=O)=O)[C@H]1CC[C@H]2[C@@H]3CC[C@@H]4C[C@H](OS(C)(=O)=O)CC[C@]4(C)[C@H]3CC[C@]12C" ) has TGI equal to > 2500 µM

Per the records, this compound ( N#CC12CC3(CCC1CCC1(C2)OCCO1)OCCO3 (centres undefined) ) has TGI equal to > 100 µM

Per the records, this compound ( "O=C(O)CCCN=C(C(=NCCCC(=O)O)c1ccccc1)c1ccccc1" ) has TGI equal to > 100 µM

Per the records, this compound ( ClCCCN1CCCCC1CCl (centres undefined) ) has TGI equal to > 100 µM
